Tested on: blackgrass (Alopecurus myosuroides)
Test: Test C preemergence
Type: in vivo
Conditions: 250 g ai/ha, scale 0 to 100, 0 no effect, 100 complete control
Each entry below lists one item and its recorded Plant response rating, Blackgrass value.
Readout type: Plant response rating, Blackgrass

{"Molecule": "O=C1NCC(c2cccc(C(F)(F)F)c2F)C1C(=O)Nc1cccc(F)c1F (centres unmarked) [Compound 591]", "Readout type": "Plant response rating, Blackgrass", "Reported value": 90}
{"Molecule": "CN1CC(c2cccc(OC(F)(F)C(F)F)c2)C(C(=O)Nc2cccc(F)c2F)C1=O (centres unmarked) [Compound 392]", "Readout type": "Plant response rating, Blackgrass", "Reported value": 60}
{"Molecule": "Cc1ccc(C2CN(C)C(=O)C2C(=O)Nc2ccccc2S(C)(=O)=O)cc1 (centres unmarked) [Compound 663]", "Readout type": "Plant response rating, Blackgrass", "Reported value": 95}
{"Molecule": "CN1CC(c2cccc(OC(F)F)c2)C(C(=O)Nc2ccccc2S(C)(=O)=O)C1=O (centres unmarked) [Compound 523]", "Readout type": "Plant response rating, Blackgrass", "Reported value": 90}
{"Molecule": "CN1CC(c2ccc(F)c(C(F)(F)F)c2)C(C(=O)Nc2ccccc2S(C)(=O)=O)C1=O (centres unmarked) [Compound 612]", "Readout type": "Plant response rating, Blackgrass", "Reported value": 95}

---

Test system: ryegrass, Italian (Italian ryegrass, Lolium multiflorum)
Assay: Test A postemergence
Type: in vivo
Conditions: Postemergence, 500 g ai/ha; 0 to 100 scale where 0 is no effect and 100 is complete control
Labelling: Plant response rating, Ryegrass, Italian reported below 50 becomes t; at or above becomes f.

{"Molecule": "CCc1cccc(C2CN(C)C(=O)C2C(=O)Nc2ccccc2S(C)(=O)=O)c1 (stereo not shown) [Compound 569]", "Label": "f"}
{"Molecule": "CN1CC(c2ccc(OC(F)F)cc2)C(C(=O)Nc2cccc(F)c2F)C1=O (stereo not shown) [Compound 562]", "Label": "f"}
{"Molecule": "N#Cc1cccc(C2CNC(=O)C2C(=O)Nc2cccc(F)c2F)c1 (stereo not shown) [Compound 621]", "Label": "t"}
{"Molecule": "O=C1NCC(c2c(F)cccc2F)C1C(=O)Nc1ccccc1F (racemic) [Compound 515]", "Label": "t"}
{"Molecule": "COCc1cccc(C2CNC(=O)C2C(=O)Nc2cccc(F)c2F)c1 (stereo not shown) [Compound 497]", "Label": "t"}

---

Each entry below lists one item and its recorded Corn plant response rating value.
Test system: corn (Zea mays)
Assay: Test A postemergence
Format: in vivo
Conditions: 125 g ai/ha, postemergence; visual injury rating on 0 to 100 scale (0 no effect, 100 complete control), approx. 10 d

{"Molecule": "O=C1NCC(c2cccc(OCC(F)F)c2)C1C(=O)Nc1cccc(F)c1F (centres unmarked) [Compound 389]", "Corn plant response rating": 30}
{"Molecule": "Cc1c(F)ccc(NC(=O)C2C(=O)NCC2c2cccc(C(F)(F)F)c2)c1F (centres unmarked) [Compound 463]", "Corn plant response rating": 0}
{"Molecule": "Cc1cccc(NC(=O)C2C(=O)NCC2c2cccc(OC(F)F)c2)c1F (centres unmarked) [Compound 420]", "Corn plant response rating": 0}
{"Molecule": "CN1CC(c2ccc(C(F)(F)F)c(F)c2)C(C(=O)Nc2ccccc2F)C1=O (centres unmarked) [Compound 399]", "Corn plant response rating": 50}
{"Molecule": "CCc1ccc(C2CNC(=O)C2C(=O)Nc2cccc(F)c2F)cc1 (centres unmarked) [Compound 467]", "Corn plant response rating": 0}
{"Molecule": "CN1CC(c2ccc(C(F)(F)F)cc2F)C(C(=O)Nc2ccc(F)cc2F)C1=O (centres unmarked) [Compound 474]", "Corn plant response rating": 0}
{"Molecule": "O=C1NCC(c2cc(Br)cs2)C1C(=O)Nc1cccc(F)c1F (racemic) [Compound 510]", "Corn plant response rating": 0}
{"Molecule": "O=C1NCC(c2ccc(C(F)(F)F)c(F)c2)C1C(=O)Nc1cccc(F)c1F (racemic) [Compound 504]", "Corn plant response rating": 70}
{"Molecule": "O=C1NCC(c2c(F)cccc2F)C1C(=O)Nc1ccccc1F (racemic) [Compound 515]", "Corn plant response rating": 0}
{"Molecule": "O=C1NCC(c2ccc(C(F)(F)F)cc2F)C1C(=O)Nc1cccc(F)c1F (centres unmarked) [Compound 475]", "Corn plant response rating": 0}
{"Molecule": "COc1ccc(NC(=O)C2C(=O)NCC2c2ccc(F)c(F)c2)c(F)c1 (centres unmarked) [Compound 413]", "Corn plant response rating": 0}
{"Molecule": "CN1CC(c2ccc(C(F)(F)F)c(F)c2)C(C(=O)Nc2cccc(F)c2F)C1=O (centres unmarked) [Compound 396]", "Corn plant response rating": 70}
{"Molecule": "CC(=O)c1ccccc1NC(=O)C1C(=O)NCC1c1ccc(F)c(F)c1 (centres unmarked) [Compound 418]", "Corn plant response rating": 0}
{"Molecule": "Cc1ccc(C2CNC(=O)C2C(=O)Nc2ccc(F)c(C)c2F)cc1F (centres unmarked) [Compound 462]", "Corn plant response rating": 0}
{"Molecule": "O=C1NCC(c2ccc(Br)cc2)C1C(=O)Nc1ccccc1F (centres unmarked) [Compound 448]", "Corn plant response rating": 0}
{"Molecule": "CCc1ccc(C2CNC(=O)C2C(=O)Nc2ccccc2F)cc1 (centres unmarked) [Compound 466]", "Corn plant response rating": 0}
{"Molecule": "CN1CC(c2ccc3c(c2)OC(F)(F)O3)C(C(=O)Nc2cccc(F)c2F)C1=O (centres unmarked) [Compound 442]", "Corn plant response rating": 50}

---

Each entry below lists one item and its recorded Plant response rating, Soybean value.
Test system: soybean (Glycine max)
Experiment: Test C preemergence
Format: in vivo
Settings: 125 g ai/ha, scale 0 to 100, 0 no effect, 100 complete control
Excerpt: […]

{"Molecule": "CN1CC(c2cccc(OC(F)F)c2)C(C(=O)Nc2ccccc2S(C)(=O)=O)C1=O (stereo not shown)", "Plant response rating, Soybean": 30}
{"Molecule": "CN1CC(c2ccc(F)c(F)c2)C(C(=O)Nc2ccccc2S(C)(=O)=O)C1=O (stereo not shown)", "Plant response rating, Soybean": 0}
{"Molecule": "CN1CC(c2ccc(C(F)(F)F)c(F)c2)C(C(=O)Nc2ccccc2F)C1=O (stereo not shown)", "Plant response rating, Soybean": 0}
{"Molecule": "CN1CC(c2ccc(F)c(C(F)(F)F)c2)C(C(=O)Nc2ccccc2S(C)(=O)=O)C1=O (stereo not shown)", "Plant response rating, Soybean": 10}

---

Each entry below lists one item and its recorded pest or weed control at 125 g/ha value.
Tested on: giant foxtail (Setaria faberii)
Assay: Test A preemergence
Assay type: in vivo
Details: Setaria faberi, pre-emergence, 240 h, 125 g ai/ha, preemergence; visual injury rating, 0 to 100 scale where 0 is no effect and 100 is complete control; approximately 10 d; read-out: Foxtail, Giant plant response rating

{"Molecule": "COc1cc([C@H]2CN(C)C(=O)[C@@H]2C(=O)Nc2ccccc2SC)cc(OC)c1OC [Compound 1218]", "Target under test": "giant foxtail (Setaria faberii)", "Output unit": "%", "pest or weed control at 125 g/ha": 80}
{"Molecule": "N#Cc1ccc([C@H]2CNC(=O)[C@@H]2C(=O)Nc2cccc(F)c2F)cc1 [Compound 1206]", "Target under test": "giant foxtail (Setaria faberii)", "Output unit": "%", "pest or weed control at 125 g/ha": 80}
{"Molecule": "COc1ccc(C(F)(F)F)cc1[C@H]1CN(C)C(=O)[C@@H]1C(=O)Nc1ccccc1F [Compound 1183]", "Target under test": "giant foxtail (Setaria faberii)", "Output unit": "%", "pest or weed control at 125 g/ha": 90}
{"Molecule": "O=C1NC[C@H](c2ccc(F)c(Oc3ccccc3)c2)[C@H]1C(=O)Nc1cccc(F)c1F [Compound 1258]", "Target under test": "giant foxtail (Setaria faberii)", "Output unit": "%", "pest or weed control at 125 g/ha": 70}
{"Molecule": "Cc1ccc([C@H]2CCN(C)C(=O)[C@@H]2C(=O)Nc2cccc(Cl)c2F)cc1 [Compound 1223]", "Target under test": "giant foxtail (Setaria faberii)", "Output unit": "%", "pest or weed control at 125 g/ha": 90}

---

Tested on: barnyardgrass (Echinochloa crus-galli)
Assay: Test B flooded paddy test
Format: in vivo
Conditions: Echinochloa crus-galli, 250 g ai/ha, Flood; 0 to 100 scale where 0 is no effect and 100 is complete control; read-out: Barnyardgrass plant response rating
Each entry below lists one item and its recorded pest or weed control at 250 g/ha value.

{"Compound smiles": "CN1CC[C@H](c2ccc(C(F)(F)F)cc2)[C@@H](C(=O)Nc2ccccc2C(F)(F)F)C1=O", "Target under test": "barnyardgrass (Echinochloa crus-galli)", "pest or weed control at 250 g/ha": "0%"}
{"Compound smiles": "CN1C[C@H](c2ccc(C(F)(F)F)cc2)[C@@H](C(=O)Nc2ccccc2-n2cccn2)C1=O", "Target under test": "barnyardgrass (Echinochloa crus-galli)", "pest or weed control at 250 g/ha": "0%"}
{"Compound smiles": "O=C(Nc1cccc(Cl)c1F)[C@H]1C(=O)N(C2CC2)CC[C@@H]1c1ccc(F)cc1", "Target under test": "barnyardgrass (Echinochloa crus-galli)", "pest or weed control at 250 g/ha": "0%"}
{"Compound smiles": "CN1C[C@H](c2ccc(C(F)(F)F)cc2)[C@@H](C(=O)Nc2ccccc2)C1=O", "Target under test": "barnyardgrass (Echinochloa crus-galli)", "pest or weed control at 250 g/ha": "40%"}
{"Compound smiles": "CN1C[C@H](c2cc(C(F)F)cs2)[C@@H](C(=O)Nc2ccccc2F)C1=O", "Target under test": "barnyardgrass (Echinochloa crus-galli)", "pest or weed control at 250 g/ha": "65%"}
{"Compound smiles": "Cc1cc([C@H]2CN(C)C(=O)[C@@H]2C(=O)Nc2cccc(F)c2F)on1", "Target under test": "barnyardgrass (Echinochloa crus-galli)", "pest or weed control at 250 g/ha": "0%"}
{"Compound smiles": "CON1CC[C@H](c2ccc(C(F)(F)F)cc2)[C@@H](C(=O)Nc2ccc(F)c(F)c2F)C1=O", "Target under test": "barnyardgrass (Echinochloa crus-galli)", "pest or weed control at 250 g/ha": "0%"}
{"Compound smiles": "O=C1NC[C@H](c2nccc(C(F)(F)F)n2)[C@H]1C(=O)Nc1ccccc1F", "Target under test": "barnyardgrass (Echinochloa crus-galli)", "pest or weed control at 250 g/ha": "0%"}
